I'd be grateful if you could share measured pKd for these entries.
target_under_test: HLA-B*40:02
protocol: IEDB peptide-MHC binding, purified MHC/competitive/radioactivity; filed as Kd, often an IC50 or EC50 that approximates it; bounds were set here for any values at or beyond the usual limits of such assays
condition_details: source organism: SARS coronavirus Tor2
Give bare numbers, as −log10 of the molar value.

Solved cases (3 shown):
>>> assay_value("SEYKGPVTDV")
7.64
>>> assay_value("AEGSRGGSQA")
4.73
>>> assay_value("YEQVVMDYL")
7.52

Go through the items and report each one's pKd.
1. KDCVMYASAL
2. AEAAVKPLL
3. STFVSAARQG

5.48
4.71
6.27

Go through the items and report each one's pKd.
1. DEDDSEPVL
2. REFLTRNPAW
3. QELGHEDLM
4. QEAYEQAVA
5. YENAFLPFT

1. 5.50
2. 7.63
3. 5.52
4. 5.92
5. 7.44
